# System: HL-60 (leukemia)
# Experimental Protocol: In vitro cytotoxic activity MTT assay, HL-60
# Format: cell-based, human
# Condition Details: Homo sapiens; HL-60 leukemia cells, MTT, 24 h incubation; read-out: Anti-proliferative activity: IC50 (μM) HL-60
Provide the reported IC50 of each item.
Your answer should be a plain number; it is taken to be in µM.

Please report the recorded IC50 for COc1cc(C2C3=C(COC3=O)Nc3nc4ccccc4n32)cc(OC)c1OC (stereo not drawn) [Example 3] .
0.128

Try this compound too: O=C1OCC2=C1C(c1ccc(O)c(O)c1)n1c(nc3ccccc31)N2 (stereo not drawn) [Example 5]
0.178

Try this compound too: O=C1OCC2=C1C(c1ccc(Br)cc1)n1c(nc3ccccc31)N2 (stereo not drawn) [Example 15]
0.092

Try this compound too: COc1ccc(C2C3=C(COC3=O)Nc3nc4ccccc4n32)cc1OC (stereo not drawn) [Example 2]
0.096

Try this compound too: Nc1ccc(C2C3=C(COC3=O)Nc3nc4ccccc4n32)cc1 (stereo not drawn) [Example 9]
0.143

Try this compound too: Cc1ccc(C2C3=C(COC3=O)Nc3nc4ccccc4n32)cc1 (stereo not drawn) [Example 7]
0.072

* * *

# System: HL-60 (leukemia)
# Experimental Protocol: In vitro cytotoxic activity MTT assay, HL-60
# Type: cell-based, human
# Condition Details: Homo sapiens; HL-60 leukemia cells, MTT, 24 h incubation; read-out: Anti-proliferative activity: IC50 (μM) HL-60
# Procedure: The cytotoxicity activity of the compounds of the current subject matter was assessed against three cancer cell lines such as A-549 (lung cancer), MCF-7 (breast cancer) and HL-60 (leukemia) cancer cells. […]
Measurement Kind: IC50
Report as: number unit

Please report the recorded IC50 for COc1cc(C2C3=C(CNC3=O)Nc3nc4ccccc4n32)cc(OC)c1OC (stereo not drawn) [Example 11] .
0.104 µM

Try this molecule too: O=C1OCC2=C1C(c1ccc3c(c1)OCO3)n1c(nc3ccccc31)N2 (stereo not drawn) [Example 4]
0.084 µM

Try this molecule too: CN(C)c1ccc(C2C3=C(COC3=O)Nc3nc4ccccc4n32)cc1 (stereo not drawn) [Example 8]
0.129 µM

Try this molecule too: COc1ccc(C2C3=C(COC3=O)Nc3nc4ccccc4n32)cc1 (stereo not drawn) [Example 1]
0.082 µM

Try this molecule too: O=C1OCC2=C1C(c1ccc(F)cc1)n1c(nc3ccccc31)N2 (stereo not drawn) [Example 13]
0.061 µM

Try this molecule too: COc1cc(C2C3=C(CSC3=O)Nc3nc4ccccc4n32)cc(OC)c1OC (stereo not drawn) [Example 12]
0.085 µM

Try this molecule too: CC(=O)Nc1ccc(C2C3=C(COC3=O)Nc3nc4ccccc4n32)cc1 (stereo not drawn) [Example 10]
0.281 µM

Try this molecule too: COc1cc(C2C3=C(COC3=O)Nc3nc4ccccc4n32)ccc1O (stereo not drawn) [Example 6]
0.133 µM

Try this molecule too: O=C1OCC2=C1C(c1ccc(Cl)cc1)n1c(nc3ccccc31)N2 (stereo not drawn) [Example 14]
0.069 µM

* * *

# System: MCF-7 (human breast cancer)
# Experimental Protocol: In vitro cytotoxic activity MTT assay, MCF-7
# Type: cell-based
# Condition Details: Homo sapiens, MCF7; MCF-7 cancer cells; read-out: IC50 (concentration of cytotoxic agent which inhibits proliferation of the treated cells by 50%) against MCF-7
Measurement Kind: pIC50
// field semantics: pIC50 = negative decimal log of concentration (mol/L)

Please report the recorded pIC50 for O=C1OCC2=C1C(c1ccc(F)cc1)n1c(nc3ccccc31)N2 (stereo not shown) .
7.35
